Provide the recorded activity at 0.01 µM for the entries that follow.
TARGET UNDER TEST: CDK4 (Homo sapiens, UniProt P11802+Q16531)
TEST NAME: HiBiT detection of HiBiT-tagged CDK4 protein level in MCF7 cells, 16 hours (Table 8)
Format: cell-based
Parameters: expressed in transfected cells; host or cells: MCF7
RUN PARAMETERS: 10 nM, MCF7 cells stably expressing HiBiT tagged target proteins, read-out: % CDK4 Relative Level (10 nM)
Sequence (P11802 whole entry): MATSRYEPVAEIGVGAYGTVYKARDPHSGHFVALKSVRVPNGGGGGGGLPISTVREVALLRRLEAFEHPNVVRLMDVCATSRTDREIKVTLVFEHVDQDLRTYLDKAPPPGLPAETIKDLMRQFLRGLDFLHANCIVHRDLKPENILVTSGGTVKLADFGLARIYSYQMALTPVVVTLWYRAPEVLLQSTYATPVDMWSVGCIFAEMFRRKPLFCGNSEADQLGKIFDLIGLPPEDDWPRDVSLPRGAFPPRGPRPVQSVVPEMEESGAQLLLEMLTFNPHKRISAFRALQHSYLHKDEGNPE
Sequence (P24385 whole entry partner): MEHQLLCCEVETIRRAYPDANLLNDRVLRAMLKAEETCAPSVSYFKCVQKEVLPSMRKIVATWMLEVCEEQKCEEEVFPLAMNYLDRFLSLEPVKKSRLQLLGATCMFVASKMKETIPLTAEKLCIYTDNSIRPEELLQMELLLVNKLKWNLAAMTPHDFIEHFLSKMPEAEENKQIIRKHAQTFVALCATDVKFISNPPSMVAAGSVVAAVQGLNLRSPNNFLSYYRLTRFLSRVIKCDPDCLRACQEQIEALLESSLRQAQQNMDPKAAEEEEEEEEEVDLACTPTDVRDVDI
Sequence (Q16531 2-1140 limits assumed): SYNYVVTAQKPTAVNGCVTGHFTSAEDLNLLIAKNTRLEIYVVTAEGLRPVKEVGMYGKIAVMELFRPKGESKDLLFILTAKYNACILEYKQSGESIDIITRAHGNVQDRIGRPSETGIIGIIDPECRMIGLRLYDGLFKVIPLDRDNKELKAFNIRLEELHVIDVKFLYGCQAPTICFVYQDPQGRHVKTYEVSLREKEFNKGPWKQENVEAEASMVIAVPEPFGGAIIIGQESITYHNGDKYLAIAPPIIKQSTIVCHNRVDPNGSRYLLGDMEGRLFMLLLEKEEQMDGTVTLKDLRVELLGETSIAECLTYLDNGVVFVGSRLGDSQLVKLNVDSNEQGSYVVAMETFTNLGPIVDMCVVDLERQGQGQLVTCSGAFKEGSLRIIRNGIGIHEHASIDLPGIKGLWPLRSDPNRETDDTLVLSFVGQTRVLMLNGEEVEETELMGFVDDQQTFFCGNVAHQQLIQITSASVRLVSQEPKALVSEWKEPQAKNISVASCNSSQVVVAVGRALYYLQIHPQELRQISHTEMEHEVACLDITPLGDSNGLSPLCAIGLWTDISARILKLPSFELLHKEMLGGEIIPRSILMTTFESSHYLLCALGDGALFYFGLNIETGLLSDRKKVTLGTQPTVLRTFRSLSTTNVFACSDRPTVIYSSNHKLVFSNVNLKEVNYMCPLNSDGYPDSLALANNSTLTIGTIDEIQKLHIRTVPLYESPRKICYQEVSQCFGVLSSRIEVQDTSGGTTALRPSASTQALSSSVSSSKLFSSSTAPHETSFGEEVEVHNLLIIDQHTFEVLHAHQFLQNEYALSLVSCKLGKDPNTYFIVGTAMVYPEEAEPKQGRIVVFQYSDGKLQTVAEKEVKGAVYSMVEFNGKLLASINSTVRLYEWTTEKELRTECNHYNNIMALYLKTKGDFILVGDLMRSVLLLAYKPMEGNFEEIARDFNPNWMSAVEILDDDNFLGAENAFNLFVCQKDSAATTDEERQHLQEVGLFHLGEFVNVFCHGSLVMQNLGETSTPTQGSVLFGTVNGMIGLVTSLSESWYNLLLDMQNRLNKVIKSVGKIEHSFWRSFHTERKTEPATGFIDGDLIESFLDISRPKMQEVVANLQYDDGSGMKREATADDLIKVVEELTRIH

COMPOUND: CNc1ccc(C(=O)Nc2ccc(N(C)C)nn2)c(NCCCCCC(=O)NC2CCC(Nc3ncc4ccc(=O)n(C5CCCC5)c4n3)CC2)n1 (centres unmarked)
activity at 0.01 µM: > 85%

Kindly give each listed record's activity at 0.01 µM.
1. CC(=O)c1c(C)c2cnc(Nc3ccc(N4CCN(C5CCN(C(=O)[C@H]6CC[C@H](Nc7nc(NC(C)C)ccc7C(=O)Nc7cc(C)n(C)n7)CC6)C5)CC4)cn3)nc2n(C2CCCC2)c1=O (some centres unmarked)
2. CC(=O)c1c(C)c2cnc(Nc3ccc(N4CCN(CC5(C(=O)N6CC7(CC(Nc8nc(NC(C)C)ccc8C(=O)Nc8ccc(N(C)C)nn8)C7)C6)CC5)CC4)cn3)nc2n(C2CCCC2)c1=O
3. CC(=O)c1c(C)c2cnc(Nc3ccc(N4CCN(C5CCN(C(=O)CC67CC(Nc8nc(NC(C)C)ccc8C(=O)Nc8ccc(N(C)C)nn8)(C6)C7)C5)CC4)cn3)nc2n(C2CCCC2)c1=O (centres unmarked)

Result:
1: > 85%; 2: 55 to 85%; 3: > 85%

Query: Return reported activity at 0.01 µM; argument: `CNc1ccc(C(=O)Nc2ccc(N(C)C)nn2)c(NCCOCCNC(=O)CN2CCN(c3ccc(Nc4ncc(F)c(-c5cc(F)c6nc(C)n(C(C)C)c6c5)n4)nc3)CC2)n1`
Result: 55 to 85%

* * *

TARGET UNDER TEST: CDK4 (Homo sapiens, UniProt P11802+Q16531)
TEST NAME: HiBiT detection of HiBiT-tagged CDK4 protein level in MCF7 cells, 16 hours (Table 8)
Format: cell-based
Set-up: expressed in transfected cells; host or cells: MCF7
RUN PARAMETERS: 100 nM, MCF7 cells stably expressing HiBiT tagged target proteins, read-out: % CDK4 Relative Level (100 nM)
PARAMETER: activity at 0.1 µM

Kindly give each listed record's activity at 0.1 µM.
1. CNc1ccc(C(=O)Nc2ccc(N(C)C)nn2)c(NCCCCCCC(=O)N2CCN(c3ccc(Nc4ncc(F)c(-c5cc(F)c6nc(C)n(C(C)C)c6c5)n4)nc3)CC2)n1 [CPD-652]
2. CNc1ccc(C(=O)Nc2ccc(N(C)C)nn2)c(NCCCCCCCC(=O)N2CCN(c3ccc(Nc4ncc5cc(C(=O)N(C)C)n(C6CCCC6)c5n4)nc3)CC2)n1 [CPD-621]
3. CNc1ccc(C(=O)Nc2ccc(N(C)C)nn2)c(NCCOCCC(=O)NC2CCC(Nc3ncc4ccc(=O)n(C5CCCC5)c4n3)CC2)n1 (centres unmarked) [CPD-672]
4. CC(=O)c1c(C)c2cnc(Nc3ccc(CN4CCN(CC(=O)N5CC6(CCC(Nc7nc(NC(C)C)ccc7C(=O)Nc7ccc(N(C)C)nn7)C6)C5)CC4)cn3)nc2n(C2CCCC2)c1=O (centres unmarked) [CPD-515]
5. CC(=O)c1c(C)c2cnc(Nc3ccc(N4CCN(C5CCN(C(=O)[C@H]6CC[C@H](Nc7nc(NC(C)C)ccc7C(=O)Nc7cn(C)c(C8CC8)n7)CC6)C5)CC4)cn3)nc2n(C2CCCC2)c1=O (some centres unmarked) [CPD-481]

Result:
> 85%
55 to 85%
> 85%
> 85%
> 85%

* * *

TARGET UNDER TEST: CDK4 (Homo sapiens, UniProt P11802+Q16531)
TEST NAME: HiBiT detection of HiBiT-tagged CDK4 protein level in MCF7 cells, 16 hours (Table 8)
Type: cell-based
Parameters: expressed in transfected cells; host or cells: MCF7
RUN PARAMETERS: 10 nM, MCF7 cells stably expressing HiBiT tagged target proteins, read-out: % CDK4 Relative Level (10 nM)
PARAMETER: activity at 0.01 µM

Recorded activity at 0.01 µM, per entry:
COMPOUND: CNc1ccc(C(=O)Nc2ccc(N(C)C)nn2)c(NCCCCCCCC(=O)NC2CCC(Nc3ncc4ccc(=O)n(C5CCCC5)c4n3)CC2)n1 (stereo not drawn)
TARGET UNDER TEST: CDK4 (Homo sapiens, UniProt P11802+Q16531)
activity at 0.01 µM: > 85%
//
COMPOUND: [2H]C([2H])([2H])Nc1ccc(C(=O)Nc2ccc(N(C)C)nn2)c(NC2CC3(C2)CN(C(=O)CN2CCC4(CCN(c5ccc(Nc6ncc7c(C)c(C(C)=O)c(=O)n(C8CCCC8)c7n6)nc5)C4)C2)C3)n1 (stereo not drawn)
TARGET UNDER TEST: CDK4 (Homo sapiens, UniProt P11802+Q16531)
activity at 0.01 µM: 55 to 85%

Please examine the following record next.
Query: Return reported activity at 0.01 µM; argument: `CNc1ccc(C(=O)Nc2ccc(N(C)C)nn2)c(NCCCCCCCCNC(=O)CN2CCN(c3ccc(Nc4ncc(F)c(-c5cc(F)c6nc(C)n(C(C)C)c6c5)n4)nc3)CC2)n1`
Result: > 85%

* * *

TARGET UNDER TEST: CDK4 (Homo sapiens, UniProt P11802+Q16531)
TEST NAME: CDK4 percentage degradation in Calu-1 cells (Table 6)
Assay type: cell-based
Parameters: Cells that express cyclin D1-3 and CDK4/6 proteins were treated with heterobifunctional compounds; endogenous in cells; host or cells: Calu-1
RUN PARAMETERS: 40 nM, 16 hours
Sequence (P11802 2-303 limits assumed): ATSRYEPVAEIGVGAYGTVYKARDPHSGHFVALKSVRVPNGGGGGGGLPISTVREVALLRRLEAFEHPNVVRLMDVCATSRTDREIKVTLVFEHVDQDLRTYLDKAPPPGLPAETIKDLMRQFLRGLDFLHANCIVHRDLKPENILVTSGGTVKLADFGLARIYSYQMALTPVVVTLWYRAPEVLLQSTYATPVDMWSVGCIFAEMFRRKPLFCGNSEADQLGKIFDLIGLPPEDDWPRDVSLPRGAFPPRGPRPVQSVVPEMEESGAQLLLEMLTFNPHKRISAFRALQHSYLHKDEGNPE
Sequence (P24385 whole entry partner): as the sequence (P24385 whole entry partner) above
Sequence (Q16531 2-1140 limits assumed): as the sequence (Q16531 2-1140 limits assumed) above
PARAMETER: inhibition at 0.04 µM

Recorded inhibition at 0.04 µM, per entry:
COMPOUND: CNc1ccc(C(=O)Nc2ccnc(C3CC3)c2)c(NC2CC3(CC(NC(=O)CN4CCN(c5ccc(Nc6ncc7c(C)c(C(C)=O)c(=O)n(C8CCCC8)c7n6)nc5)CC4)C3)C2)n1 (centres unmarked)
inhibition at 0.04 µM: < 30%
--
COMPOUND: CNc1ccc(C(=O)Nc2ccc(N(C)C)nn2)c(NC2CCN(C(=O)C3CC34CCN(c3ccc(Nc5ncc6c(C)c(C(C)=O)c(=O)n(C7CCCC7)c6n5)nc3)CC4)CC2)n1 (centres unmarked)
inhibition at 0.04 µM: < 30%
--
COMPOUND: CNc1ccc(C(=O)Nc2ccc(N(C)C)nn2)c(NC2CC3(CC(NCCN4CCN(c5ccc(Nc6ncc7c(C)c(C(C)=O)c(=O)n(C8CCCC8)c7n6)nc5)CC4)C3)C2)n1 (centres unmarked)
inhibition at 0.04 µM: < 30%
--
COMPOUND: CNc1ccc(C(=O)Nc2ccc(N(C)C)nn2)c(NC2CCN(C(=O)CN3CCN(c4ccc(Nc5ncc6c(C)c(C(C)=O)c(=O)n(C7CCCC7)c6n5)nc4)CC3)CC2)n1
inhibition at 0.04 µM: 50 to 80%

Query: Return reported inhibition at 0.04 µM; argument: `CC(=O)c1c(C)c2cnc(Nc3ccc(N4CCN(CC(=O)NCCCCCCCNc5nc(-c6ccc(C#N)nc6)ccc5C(=O)Nc5nc(C)c(C)s5)CC4)cn3)nc2n(C2CCCC2)c1=O`
Result: < 30%

* * *

TARGET UNDER TEST: CDK4 (Homo sapiens, UniProt P11802+Q16531)
TEST NAME: HiBiT detection of HiBiT-tagged CDK4 protein level in MCF7 cells, 16 hours (Table 8)
Format: cell-based
Set-up: expressed in transfected cells; host or cells: MCF7
RUN PARAMETERS: 10 nM, MCF7 cells stably expressing HiBiT tagged target proteins, read-out: % CDK4 Relative Level (10 nM)
PARAMETER: activity at 0.01 µM

Recorded activity at 0.01 µM, per entry:
COMPOUND: CC(=O)c1c(C)c2cnc(Nc3ccc(CN4CCN(CC(=O)N5CCC6(CCC(Nc7nc(NC(C)C)ccc7C(=O)Nc7ccc(N(C)C)nn7)C6)C5)CC4)cn3)nc2n(C2CCCC2)c1=O (centres unmarked)
activity at 0.01 µM: 55 to 85%
--
COMPOUND: CNc1ccc(C(=O)Nc2ccc(N(C)C)nn2)c(NCCOCCOCCC(=O)N2CCN(c3ccc(Nc4ncc(F)c(-c5cc(F)c6nc(C)n(C(C)C)c6c5)n4)nc3)CC2)n1
activity at 0.01 µM: > 85%
--
COMPOUND: CNc1ccc(C(=O)Nc2ccc(N(C)C)nn2)c(NCCCCC(=O)N2CCN(c3ccc(Nc4ncc5cc6n(c5n4)C4(CCCCC4)CNC6=O)nc3)CC2)n1
activity at 0.01 µM: 55 to 85%
--
COMPOUND: CNc1ccc(C(=O)Nc2ccc(N(C)C)nn2)c(NCCCCCCCCNC(=O)CN2CCN(c3ccc(Nc4ncc5cc6n(c5n4)C4(CCCCC4)CNC6=O)nc3)CC2)n1
activity at 0.01 µM: > 85%

Please examine the following record next.
Query: Return reported activity at 0.01 µM; argument: CC(=O)c1c(C)c2cnc(Nc3ccc(CN4CCC(N(C)C(=O)C5CC6(CC(Nc7nc(NC(C)C)ccc7C(=O)Nc7ccc(N(C)C)nn7)C6)C5)CC4)cn3)nc2n(C2CCCC2)c1=O (centres unmarked)
Result: > 85%
